Test: Pharmacokinetics after intranasal administration in rabbits
Settings: male, New Zealand white, rabbit, plasma, inhaled or intranasal, 0.625 mg
endpoint.label: Tmax

• CN1CCC(=C2c3ccccc3CCn3c(C=O)cnc32)CC1 [Alcaftadine] = 4.8 min
